- protocol: 8-day repeat-dose study, tolerability (blood chemistry, hematology, adverse events) in tumor-bearing dogs
- Assay type: in vivo, dog
- test_conditions: Dog 3; Post: 30 min after last injection on day 8; 10 mg s.c. once daily for 8 days
- Method: Previous studies utilizing repeat dosing in mice and rats established safe starting doses for studies using dogs. […] Blood levels of AFPep were measured before and 30 minutes following its administration on the first day and eighth day of treatment with AFPep. […] Tolerability was assessed using the Veterinary Cooperative Oncology Group Common Terminology Criteria for Adverse Events. […]
Where a SMILES comes first, the peptide text is derived from it. [ ]: non-standard residue; d: D form. Hyp = O=C(O)[C@@H]1C[C@@H](O)CN1
readout: Globulin (g/dL)
Unit g/dL implied. Number only.

Q) Please report Globulin for the following compound: CC(C)[C@@H]1NC(=O)[C@@H]2C[C@@H](O)CN2C(=O)[C@H]([C@@H](C)O)NC(=O)[C@H](CCCCN)NC(=O)[C@H](CCC(=O)O)NC(=O)[C@H](CC(N)=O)NC(=O)CNC(=O)[C@@H]2C[C@@H](O)CN2C(=O)[C@H](CC(N)=O)NC1=O [AFPep] (cyclo(EKT[Hyp]VN[Hyp]GN))
A) 3

====

- protocol: 8-day repeat-dose study, tolerability (blood chemistry, hematology, adverse events) in tumor-bearing dogs
- Assay type: in vivo, dog
- test_conditions: Dog 1; Post: 30 min after last injection on day 8; 10 mg s.c. once daily for 8 days
Where a SMILES comes first, the peptide text is derived from it. [ ]: non-standard residue; d: D form. Hyp = O=C(O)[C@@H]1C[C@@H](O)CN1
readout: Calcium (mg/dL)
Your answer is read as mg/dL, so omit the unit and give the number.

Q) Provide one value: measured Calcium of CC(C)[C@@H]1NC(=O)[C@@H]2C[C@@H](O)CN2C(=O)[C@H]([C@@H](C)O)NC(=O)[C@H](CCCCN)NC(=O)[C@H](CCC(=O)O)NC(=O)[C@H](CC(N)=O)NC(=O)CNC(=O)[C@@H]2C[C@@H](O)CN2C(=O)[C@H](CC(N)=O)NC1=O [AFPep] (cyclo(EKT[Hyp]VN[Hyp]GN))
A) 10

====

- protocol: 8-day repeat-dose study, AFPep blood levels in tumor-bearing dogs
- Assay type: in vivo, dog
- test_conditions: female, Yorkshire terrier, dog, blood, sc, 10 mg, Yorkshire terrier, 5.86 kg; 30 min after 10 mg s.c.; single animal; read-out: AFPep blood level, Day 1 Post-Treatment
Where a SMILES comes first, the peptide text is derived from it. [ ]: non-standard residue; d: D form. Hyp = O=C(O)[C@@H]1C[C@@H](O)CN1
readout: level at 0.5 h
Param answer (str): number followed by unit.

Q) Identify level at 0.5 h associated with the molecule CC(C)[C@@H]1NC(=O)[C@@H]2C[C@@H](O)CN2C(=O)[C@H]([C@@H](C)O)NC(=O)[C@H](CCCCN)NC(=O)[C@H](CCC(=O)O)NC(=O)[C@H](CC(N)=O)NC(=O)CNC(=O)[C@@H]2C[C@@H](O)CN2C(=O)[C@H](CC(N)=O)NC1=O [AFPep] (cyclo(EKT[Hyp]VN[Hyp]GN))
A) 2200 ng/mL

====

- protocol: 8-day repeat-dose study, tolerability (blood chemistry, hematology, adverse events) in tumor-bearing dogs
- Type: in vivo, dog
- test_conditions: Dog 1; Post: 30 min after last injection on day 8; 10 mg s.c. once daily for 8 days
Where a SMILES comes first, the peptide text is derived from it. [ ]: non-standard residue; d: D form. Hyp = O=C(O)[C@@H]1C[C@@H](O)CN1
readout: Sodium
Returns: string containing the number followed by the unit.

Q) Give a short answer stating reported Sodium for CC(C)[C@@H]1NC(=O)[C@@H]2C[C@@H](O)CN2C(=O)[C@H]([C@@H](C)O)NC(=O)[C@H](CCCCN)NC(=O)[C@H](CCC(=O)O)NC(=O)[C@H](CC(N)=O)NC(=O)CNC(=O)[C@@H]2C[C@@H](O)CN2C(=O)[C@H](CC(N)=O)NC1=O [AFPep] (cyclo(EKT[Hyp]VN[Hyp]GN)) .
A) 145 mmol/L
